# Lookup of reported Activity keyed by entry
- Test system: Radical scavenging activity
- measurement_description: Antioxidant activity assessed as DPPH radical scavenging activity in ethanol solution at 25 ug/mL
- Type: functional
// units = %; emit number, no label

Ask | Report the value of Activity obtained on Radical scavenging activity for Cc1ccc(C(C)C)cc1O .
Reply | 18.4

Ask | State the measured Activity (Radical scavenging activity) of Cc1cc(O)c(C(C)(C)C)cc1/N=C/c1ccc(C(C)C)cc1
Reply | 64

Ask | Enter Activity (test system Radical scavenging activity) for Cc1cc(O)c(C(C)C)cc1/N=C/c1ccc(Cl)cc1
Reply | 63.8

Ask | Please indicate recorded Activity of COc1ccc(/C=N/c2cc(C(C)C)c(O)cc2C)cc1 measured with Radical scavenging activity.
Reply | 77.5

Ask | Output reported Activity of the molecule CCc1ccc(/C=N/c2cc(C)c(O)cc2C(C)C)cc1 on Radical scavenging activity.
Reply | 61.3

Ask | Report value: Activity, system: Radical scavenging activity, molecule: CCc1ccc(/C=N/c2cc(C(C)(C)C)c(O)cc2C)cc1
Reply | 56.3

====

- Test system: Radical scavenging activity
- measurement_description: Antioxidant activity assessed as DPPH radical scavenging activity in ethanol solution at 25 ug/mL
- Format: functional
Reported Activity by item:
Write it as a number; the unit % goes unstated.

Some solved cases for reference:
substance_smiles=Cc1cc(O)c(C(C)(C)C)cc1/N=C/c1ccc2c(c1)OCO2 measurement_units=% reported=68.5
substance_smiles=CCCc1ccc(/C=N/c2cc(C(C)(C)C)c(O)cc2C)cc1 measurement_units=% reported=62.9
substance_smiles=Cc1cc(/N=C/c2ccc(C(C)C)cc2)c(C(C)C)cc1O measurement_units=% reported=61.7
substance_smiles=Cc1cc(O)c(C(C)(C)C)cc1/N=C/c1ccc(Cl)cc1 measurement_units=% reported=61.5
substance_smiles=Cc1cc(O)c(C(C)(C)C)cc1/N=C/c1ccccn1 measurement_units=% reported=61

Okay, now this compound:
Ask | Look up and state reported Activity for Cc1cc(/N=C/c2ccc3c(c2)OCO3)c(C(C)C)cc1O
Reply | 68.6

====

- System: Radical scavenging activity
- measurement_description: Antioxidant activity assessed as DPPH radical scavenging activity in chloroform solution at 5 ug/mL
- Assay type: functional
In this section we review reported Activity values for a set of molecules.
Answer shape: numeric part, then the unit.

Previously resolved entries follow.
substance_smiles=COc1cc(/C=N/c2cc(C)c(O)cc2C(C)C)cc(OC)c1OC measured_quantity=Activity reported=19.7%
substance_smiles=COc1ccc(/C=N/c2cc(C)c(O)cc2C(C)C)cc1OC measured_quantity=Activity reported=25.4%
substance_smiles=COc1cc(/C=N/c2cc(C(C)(C)C)c(O)cc2C)cc(OC)c1OC measured_quantity=Activity reported=17.3%
substance_smiles=COc1cc(/C=N/c2cc(C)c(O)cc2C(C)C)cc(OC)c1 measured_quantity=Activity reported=20.4%
substance_smiles=Cc1cc(O)c(C(C)(C)C)cc1/N=C/c1ccc(O)cc1 measured_quantity=Activity reported=31%
substance_smiles=COc1cc(/C=N/c2cc(C(C)(C)C)c(O)cc2C)cc(OC)c1 measured_quantity=Activity reported=27%
substance_smiles=Cc1cc(/N=C/c2cc(Br)c(O)c(Br)c2)c(C(C)C)cc1O measured_quantity=Activity reported=31.7%
substance_smiles=Cc1cc(O)c(C(C)C)cc1/N=C/c1cc(Br)cc(Br)c1O measured_quantity=Activity reported=24.3%

Ask | Retrieve Activity measured for COc1ccc(/C=N/c2cc(C)c(O)cc2C(C)C)cc1 and print it.
Reply | 34.2%

Ask | Note Activity for the molecule shown: COc1ccc(/C=N/c2cc(C(C)(C)C)c(O)cc2C)cc1OC
Reply | 22.6%

Ask | Give reported Activity value for COc1cc(/C=N/c2cc(C(C)C)c(O)cc2C)cc(OC)c1OC
Reply | 20.7%
